Tested on: A. fumigatus RG101
Assay type: cell-based, Aspergillus fumigatus
Recorded Conditions: 24 h, Fig 1B
Starred links: 1 amine or outer side, 2 acyl side, 3 side chain; linkers in the order of their positions; H or OH if unused. Positions of bridges follow the written chain, without caps; N, C: chain ends. Non-standard residues stand in square brackets, D forms with d. Residues, ends and D or L forms follow the SMILES beside them. *: point of attachment. hTyr(3S-OH,4S-OH,3'-OSO3H) = N[C@H](C(=O)O)[C@H](O)[C@@H](O)c1ccc(O)c(OS(=O)(=O)O)c1; pTerphenylCO(4''-OnC5H11) = CCCCCOc1ccc(-c2ccc(-c3ccc(C(=O)*)cc3)cc2)cc1; Orn(4R-OH,5R-OH) = O=C([C@H](C[C@@H](O)[C@@H](O)N[*:3])N[*:1])[*:2]; hTyr(3S-OH,4S-OH) = N[C@H](C(=O)O)[C@H](O)[C@@H](O)c1ccc(O)cc1; Pro(3S-OH,4S-Me) = C[C@H]1CN[C@H](C(=O)O)[C@H]1O; X1 = CCCCCOc1ccc(-c2cc(-c3ccc(C(=O)*)cc3)no2)cc1; Gln(3R-OH) = NC(=O)C[C@@H](O)[C@H](N)C(=O)O; Hyp = O=C(O)[C@@H]1C[C@@H](O)CN1
Below, each of the molecules is paired with its reported Drug susceptibility testing result, RG101 value.
Property Measured: Drug susceptibility testing result, RG101

| Molecule | Endpoint Value |
| --- | --- |
| C[C@@H](c1ncncc1F)[C@](O)(Cn1cncn1)c1ccc(F)cc1F [Voriconazole, voriconazole] | 0.12 µg/mL |
| CCCCCOc1ccc(-c2ccc(-c3ccc(C(=O)N[C@H]4C[C@@H](O)[C@@H](O)NC(=O)[C@@H]5[C@@H](O)[C@@H](C)CN5C(=O)[C@H]([C@@H](C)O)NC(=O)[C@H]([C@H](O)[C@@H](O)c5ccc(O)cc5)NC(=O)[C@@H]5C[C@@H](O)CN5C(=O)[C@H]([C@@H](C)O)NC4=O)cc3)cc2)cc1 [ANF, anidulafungin] ({pTerphenylCO(4''-OnC5H11)}-[Orn(4R-OH,5R-OH)]T[Hyp][hTyr(3S-OH,4S-OH)]T[Pro(3S-OH,4S-Me)]; lactam 1-C) | 0.03 µg/mL |
| CCCCCOc1ccc(-c2cc(-c3ccc(C(=O)N[C@H]4C[C@@H](O)[C@@H](O)NC(=O)[C@@H]5[C@@H](O)[C@@H](C)CN5C(=O)[C@H]([C@H](O)CC(N)=O)NC(=O)[C@H]([C@H](O)[C@@H](O)c5ccc(O)c(OS(=O)(=O)O)c5)NC(=O)[C@@H]5C[C@@H](O)CN5C(=O)[C@H]([C@@H](C)O)NC4=O)cc3)no2)cc1 [MFG, micafungin] (X1-[Orn(4R-OH,5R-OH)]T[Hyp][hTyr(3S-OH,4S-OH,3'-OSO3H)][Gln(3R-OH)][Pro(3S-OH,4S-Me)]; lactam 1-C) | 0.03 µg/mL |
| C[C@@H]1[C@H](O)[C@@H](C)/C=C/C=C/C=C/C=C/C=C/C=C/C=C/[C@H](O[C@@H]2O[C@H](C)[C@@H](O)[C@H](N)[C@@H]2O)C[C@@H]2O[C@](O)(C[C@@H](O)C[C@@H](O)[C@H](O)CC[C@@H](O)C[C@@H](O)CC(=O)O[C@H]1C)C[C@H](O)[C@H]2C(=O)O [Amphotericin B, amphotericin B] | 0.5 µg/mL |
| CCC(C)n1ncn(-c2ccc(N3CCN(c4ccc(OCC5COC(Cn6cncn6)(c6ccc(Cl)cc6Cl)O5)cc4)CC3)cc2)c1=O (centres unmarked) [Itraconazole, itraconazole] | 0.5 µg/mL |
